Test system: HCC1599
Assay notes: normalised response (% of control), CellTiter-Glo; higher = more viable cells (100 = DMSO, 0 = benzethonium chloride kill control)
Experimental setup: incubation time: 72 h
Reported endpoint: normalised response (%)
Answer in %, number only, no unit symbol.

Please review the following examples before continuing.
# get_value(readout='normalised response', item= C=CCNC1=C2C[C@@H](C)C[C@H](OC)[C@H](O)[C@@H](C)/C=C(\C)[C@H](OC(N)=O)[C@@H](OC)/C=C\C=C(/C)C(=O)NC(=CC1=O)C2=O [Tanespimycin] (1 nM) ) 102

Consider next the compound OC[C@H]1O[C@@H](n2cnc3c2N=CNC[C@H]3O)C[C@@H]1O [Pentostatin] (1000 nM) in the same way. 103

More entries:
Quick one: normalised response for COc1cccc2cc(-c3nc([C@H]4CC[C@H](C(=O)O)CC4)n4ncnc(N)c34)[nH]c12 [OSI-027] (1000 nM) ? 118

====

Tested on: CAL-85-1
Assay notes: normalised response (% of control), CellTiter-Glo; higher = more viable cells (100 = DMSO, 0 = benzethonium chloride kill control)
Experimental setup: incubation time: 72 h
Reported endpoint: normalised response (%)
Please respond with the number in % and leave the unit unwritten.

Any idea what normalised response was measured for COc1cc(Nc2ncc3c(n2)-c2ccc(Cl)cc2C(c2c(F)cccc2OC)=NC3)ccc1C(=O)O [Alisertib] (10 nM) ? 94.4

Another compound to check: CO[C@H]1C[C@@H]2CC[C@@H](C)[C@@](O)(O2)C(=O)C(=O)N2CCCC[C@H]2C(=O)O[C@H]([C@H](C)C[C@@H]2CC[C@@H](OC(=O)C(C)(CO)CO)[C@H](OC)C2)CC(=O)[C@H](C)/C=C(\C)[C@@H](O)[C@@H](OC)C(=O)[C@H](C)C[C@H](C)/C=C/C=C/C=C/1C [Temsirolimus] (0.1 nM) 100

Let us now turn to S=c1[nH]cnc2nc[nH]c12 [Mercaptopurine] (10 nM) 94.5

Can you check CCN1CCN(c2ccc(Nc3cc(N(C)C(=O)Nc4c(Cl)c(OC)cc(OC)c4Cl)ncn3)cc2)CC1 [NVP-BGJ398] (0.1 nM) next? 93.4

Also C=CC[C@@H]1/C=C(\C)C[C@H](C)C[C@H](OC)[C@H]2O[C@@](O)(C(=O)C(=O)N3CCCC[C@H]3C(=O)O[C@H](/C(C)=C/[C@@H]3CC[C@@H](O)[C@H](OC)C3)[C@H](C)[C@@H](O)CC1=O)[C@H](C)C[C@@H]2OC [Tacrolimus] (1 nM) , if possible. 97.8

What about this compound? CN1CCC(COc2cnc(-c3cccc(Cn4nc(-c5cccc(C#N)c5)ccc4=O)c3)nc2)CC1 (0.1 nM) 92.8

More entries:
Would you mind telling me what normalised response value was observed for C[C@]1(c2nc3c(C(N)=O)cccc3[nH]2)CCCN1 [Veliparib] (1000 nM) ? 115

====

Tested on: BT-474
Assay notes: drug sensitivity score (DSS), CellTiter-Glo (DSS (AUC-based score)); higher = stronger drug effect (viability inhibition or cytotoxicity); extreme values may be limits of the assay
Experimental setup: incubation time: 72 h
Reported endpoint: drug sensitivity score

Here's what some known entries look like.
Which drug sensitivity score is reported for this compound? CN1CCC(COc2cnc(-c3cccc(Cn4nc(-c5cccc(C#N)c5)ccc4=O)c3)nc2)CC1 0

Now give it for COc1cccc2cc(-c3nc([C@H]4CC[C@H](C(=O)O)CC4)n4ncnc(N)c34)[nH]c12 [OSI-027] too. 4.09

How about CS(=O)(=O)c1ccc(C(=O)Nc2ccc(Cl)c(-c3ccccn3)c2)c(Cl)c1 [Vismodegib] ? 0

Also need Cc1ccc(F)c(NC(=O)Nc2ccc(-c3cccc4[nH]nc(N)c34)cc2)c1 [Linifanib] , thanks. 0

Please answer likewise for CO[C@H]1C[C@@H]2CC[C@@H](C)[C@@](O)(O2)C(=O)C(=O)N2CCCC[C@H]2C(=O)O[C@H]([C@H](C)C[C@@H]2CC[C@@H](OC(=O)C(C)(CO)CO)[C@H](OC)C2)CC(=O)[C@H](C)/C=C(\C)[C@@H](O)[C@@H](OC)C(=O)[C@H](C)C[C@H](C)/C=C/C=C/C=C/1C [Temsirolimus] 2.49

In the following, a different compound is considered.
drug sensitivity score lookup needed for Cc1c2oc3c(C)ccc(C(=O)N[C@@H]4C(=O)N[C@H](C(C)C)C(=O)N5CCC[C@H]5C(=O)N(C)CC(=O)N(C)[C@@H](C(C)C)C(=O)O[C@@H]4C)c3nc-2c(C(=O)N[C@@H]2C(=O)N[C@H](C(C)C)C(=O)N3CCC[C@H]3C(=O)N(C)CC(=O)N(C)[C@@H](C(C)C)C(=O)O[C@@H]2C)c(N)c1=O [Dactinomycin] , thanks. 21
